- System: modified luciferase expression
- Method: Expression of Luc in different organs (liver, lung, spleen, femur) 6 hours after intravenous administration
- Assay type: in vivo
- Test settings: Table 20-3, mice, i.v., 0.5 mpk, femur
Assay readout: Total Flux Femur

* CCCCC/C=C\C/C=C\CCCCCCCCN(CCO)CCN(CCCCCCCCCCCC)CCCCCCCCCCCC | 3.13E+05
* CCCCC/C=C\C/C=C\CCCCCCCCN(CCCCCCCC/C=C\C/C=C\CCCCC)CCN(CCO)CCCCCCCCCCCC | 3.11E+05
* CCCCCCCCCCCCN(CCCCCCCCCCCC)CCN(CCO)CCCCCC(=O)OCCCCC | 1.73E+06
* CCCCCCCCCCCCCCN(CCO)CCN(CCCCCCCCCCCCCC)CCCCCCCCCCCCCC | 1.37E+06
* CCCCCCCCCCCCN(CCCCCCCCCCCC)CCN(CCO)CCCCCCCC(=O)OC(CCCCCCCC)CCCCCCCC | 2.89E+05

* * *

- System: IP-10
- Method: Cytokine production induced by sample formulations: IP-10
- Assay type: in vivo
- Test settings: Table 20-4, formula (20-I); mice, i.v., 0.5 mpk, 6 hours; in pg/mL (unit assumed)
Assay readout: IP-10

- CCCCCCCCCCCCN(CCO)CCN(CCCCCC(=O)OCCCCC)CCCCCC(=O)OCCCCC: 270.5
- CCCCCCCOC(=O)CCCCCN(CCO)CCN(CCCCCC(=O)OCCCCCCC)CCCCCC(=O)OCCCCCCC: 2012.3
- CCCCCCCCCCCCCCN(CCO)CCN(CCCCCCCCCCCC)CCCCCCCCCCCC: 1678.6
- CCCCCCCCCCCCN(CCCCCCCCCCCC)CCN(CCO)CCCCCCCC(=O)OCCCCCCCCC: 134.0
- CCCCCCCCCCCCN(CCCCCCCCCCCC)CCN(CCO)CCCCCC: 136.3
- CCCCC/C=C\C/C=C\CCCCCCCCN(CCO)CCN(CCCCCCCCCCCC)CCCCCCCCCCCC: 188.0
- CCCCCCCCCCCCN(CCCCCCCCCCCC)CCNCCO: 127.2
- CCCCCCCCCCCCN(CCCCCCCCCCCC)CCN(CCO)CCCCCC(=O)OCCCCC: 671.5
- CCCCCCCCCCCCN(CCCCCCCCCCCC)CCN(CCCCCCCCCCCC)CC(=O)O: 2065.8

* * *

- Method: Particle size and polydispersity index of nanoparticle compositions (Zetasizer Nano ZS)
- Assay type: physicochemical
- Test settings: Table 1; rows without footnote mark (lipid:DOPE:cholesterol:PEG-DMG 40:20:38.5:1.5, Luc mRNA; MC3 standard formulation)
For each record, check the reported Size (nm): if it is below 90 nm write fulfilled, else write not fulfilled.

* CCCCCCCCCN(CCCCCCCCC)CCN(CCCCCCCCC)CCC1CCN(C(=O)CN(CCCCCCCCC)CCCCCCCCC)CC1 | fulfilled
* CCCCCCCCCN(CCCCCCCCC)CCC1CCN(C(=O)CN(CCCCCCCCC)CCN(CCCCCCCCC)CCCCCCCCC)CC1 | not fulfilled
* CCCCCCCCCCCCN(CCN(CCCCCCCCC)CCCCCCCCC)CC(=O)N1CCN(C(=O)CN(CCCCCCCCC)CCCCCCCCC)CC1 | fulfilled

* * *

- Method: pKa of nanoparticle compositions
- Type: physicochemical
- Test settings: Table 1; rows without footnote mark
Assay readout: pKa

- CCCCC/C=C\CCCCCN(CCCCC/C=C\CCCCC)CCN1CCN(CCN(CCCCCCCCCCCC)CCN(CCCCCCCCCCCC)CCCCCCCCCCCC)CC1 [Compound 25]: 6.20
- CCCCCCCCCCCCN(CCCCCCCCCCCC)CCN1CCN(CCN(CCCCCCCCC)CCN(CCCCCCCCC)CCCCCCCCC)CC1 [Compound 19]: 6.29
- CCCCCCCC/C=C\CCCCCCCCN(CCCCCCCC/C=C\CCCCCCCC)CCN(CCCCCCCC/C=C\CCCCCCCC)CCN1CCN(CCN(CCCCCCCCCCCC)CCCCCCCCCCCC)CC1 [Compound 33]: 6.06
- CCCCCCCCCCCCN(CCCCCCCCCCCC)CCN(CCCCCCCCCCCC)CC(=O)N1CCN(C(=O)CN(CCCCCCCCCCCC)CCCCCCCCCCCC)CC1 [Compound 11]: 6.54

* * *

Below: a set of entries, each annotated with reported % Dose remaining 6 h CD-1 mice.
- Method: Lipid clearance: % dose remaining in mouse liver 6 h and 24 h after administration of nanoparticle compositions
- Format: in vivo, CD-1 mice
- Test settings: 6 h, CD-1 mice
Assay readout: % Dose remaining 6 h CD-1 mice (%)

* CCCCCCCCCCCCN(CCCCCCCCCCCC)CCN(CCCCCCCCCCCC)CC(=O)N1CC2CC1CN2C(=O)CN(CCCCCCCCC)CCCCCCCCC (stereo not drawn) [Compound 43] | 69
* CCCCCCCCCCCCCCN(CCCCCCCCCCCCCC)CC(=O)N1CCN(C(=O)CN(CCCCCCCCC)CCN(CCCCCCCCC)CCCCCCCCC)CC1 [Compound 51] | 54
* CCCCCCCCCN(CCCCCCCCC)CCN(CCCCCCCC(=O)OC)CC(=O)N1CCN(C(=O)CN(CCCCCCCCC)CCCCCCCCC)CC1 [Compound 47] | 1
* CCCCCCCCCN(CCCCCCCCC)CCC(=O)N1CCN(C(=O)CCN(CCCCCCCCC)CCN(CCCCCCCCC)CCCCCCCCC)CC1 [Compound 52] | 46
* CCCCCCCCCN(CCCCCCCCC)CCN(CCCCCCCCC)CC(=O)N1CC2CC1CN2C(=O)CN(CCCCCCCCC)CCCCCCCCC (stereo not drawn) [Compound 42] | 58

* * *

- Method: pKa of nanoparticle compositions
- Format: physicochemical
- Test settings: Table 19-1
Assay readout: pKa

- CCCCCCCCCCCCN(CCCCCCCCCCCC)CCN1CCN(C)CC1: 7.09
- CCCCC/C=C\C/C=C\CCCCCCCCN(CCCCCCCC/C=C\C/C=C\CCCCC)CCN1CCN(CCCCCCCCCCCC)CC1: 5.89
- CCCCCCCCCCCCN(CCCCCCCCCCCC)CCN1CCN(Cc2ccc(OC)cc2)CC1: 6.32
- CCCCCCCCCCCCN(CCCCCCCCCCCC)CCN1CCNCC1: 7.32
- CCCCCCCCCN(CCCCCCCCC)CCN1CCNCC1: 6.76
- CCCCC/C=C\C/C=C\CCCCCCCCN(CCCCCCCC/C=C\C/C=C\CCCCC)CCN1CCNCC1: 7.24

* * *

- System: modified luciferase expression
- Method: Expression of Luc in different organs (liver, lung, spleen, femur) 6 hours after intravenous administration
- Type: in vivo
- Test settings: Table 17-3, mice, i.v., 0.5 mpk, lung
Classification field. Basis: Total Flux Lung. Definitions: low (below 20000), mid (20000 to below 200000), high (200000 or more)

* CCCCCCCCCCCCN(CCCO)CCCCCCCCCCCC | mid
* CCCCCCCCCCCCN(CCCCO)CCCCCCCCCCCC | mid
* CCCCCCCCCN(CCO)CCCCCCCCC | mid
* CCCCCCCCCCCCN(CCO)CCCCCCCCCCCC | low
* CCCCC/C=C\C/C=C\CCCCCCCCN(CCCCCCCC/C=C\C/C=C\CCCCC)CCOC | low
* CCCCC/C=C\C/C=C\CCCCCCCCN(CCO)CCCCCCCCCCCCCC | high
* CCCCCCCCCCCCCCN(CCO)CCCCCCCCCCCCCC | low
* CCCCCCCC/C=C\CCCCCCCCN(CCO)CCCCCCCC/C=C\CCCCCCCC | high
* CCCCCC=CCC=CCCCCCCCCC(CCCCCCCCC=CCC=CCCCCC)OC(=O)CCCN(C)C (stereo not shown) [MC3, reference compound] | high
* CCCCC/C=C\C/C=C\CCCCCCCCN(CCO)CCCCCCCCCCCCCCCCCC | mid
* CCCCC/C=C\C/C=C\CCCCCCCCN(CCO)CCCCCCCCC | low

* * *

- Method: Encapsulation efficiency of RNA (QUANT-IT RIBOGREEN RNA assay)
- Assay type: physicochemical
- Test settings: Table 20-1; rows without footnote mark
- Description: For nanoparticle compositions including an RNA, a QUANT-IT™ RIBOGREEN® RNA assay (Invitrogen Corporation Carlsbad, Calif.) can be used to evaluate the encapsulation of an RNA by the nanoparticle composition. […] The fluorescence intensity can be measured using a fluorescence plate reader (Wallac Victor 1420 Multilablel Counter; Perkin Elmer, Waltham, Mass.) at an excitation wavelength of, for example, about 480 nm and an emission wavelength of, for example, about 520 nm. […]
Assay readout: EE (%)

• CCCCCCCCCCCCN(CCO)CCN(CCCCCC(=O)OCCCCC)CCCCCC(=O)OCCCCC = 91.3%
• CCCCCCCCCCCCN(CCO)CCN(CCCCCCCCCCCC)CCCCCC(=O)OCCCCC = 91.6%
• CCCCCCCCCCCCN(CCO)CCN(CCCCCCCCC)CCCCCCCCC = 91.1%
• CCCCCCCOC(=O)CCCCCN(CCO)CCN(CCCCCC(=O)OCCCCCCC)CCCCCC(=O)OCCCCCCC = 78.1%
• CCCCCCCCCCCCCCN(CCO)CCN(CCCCCCCCCCCC)CCCCCCCCCCCC = 96.9%
• CCCCCCCCCN(CCO)CCN(CCCCCCCCC)CCCCCCCCC = 97.2%
• CCCCCCCCCCCCCCN(CCCCCCCCCCCCCC)CCN(CCCO)CCCCCCCCCCCC = 97.5%
• CCCCCC=CCC=CCCCCCCCCC(CCCCCCCCC=CCC=CCCCCC)OC(=O)CCCN(C)C (stereo not drawn) [MC3, reference compound] = 97.4%
• CCCCC/C=C\C/C=C\CCCCCCCCN(CCO)CCN(CCCCCCCCCCCC)CCCCCCCCCCCC = 98.4%
